target-desc: HLA-A*01:01
protocol-details: IEDB peptide-MHC binding, purified MHC/competitive/fluorescence; bounds were set here for any values at or beyond the usual limits of such assays
applied-conditions: source organism: Vaccinia virus
readout-type: pIC50
pIC50 is defined as minus the log10 of a concentration measured in mol/L.

Record for `AMEKSSKYY` under target or system HLA-A*01:01: pIC50 reported as 4.55

* * *

target-desc: HLA-B*18:01
protocol-details: IEDB peptide-MHC binding, purified MHC/direct/fluorescence; filed as Kd, often an IC50 or EC50 that approximates it; bounds were set here for any values at or beyond the usual limits of such assays
applied-conditions: source organism: Rickettsia australis
pKd: −log10 of the molar value.
readout-type: pKd

The sequence `ATYGTAVNK` showed pKd equal to ≤ 4.70

* * *

target-desc: HLA-A*69:01
protocol-details: IEDB peptide-MHC binding, purified MHC/direct/fluorescence; filed as Kd, often an IC50 or EC50 that approximates it; bounds were set here for any values at or beyond the usual limits of such assays
applied-conditions: source organism: Shigella flexneri
readout-type: Kd

The sequence `KTTLFHTFK` showed Kd equal to ≥ 20 µM

* * *

target-desc: HLA-A*31:01
protocol-details: IEDB peptide-MHC binding, purified MHC/direct/fluorescence; filed as Kd, often an IC50 or EC50 that approximates it; bounds were set here for any values at or beyond the usual limits of such assays
applied-conditions: source organism: Brucella abortus 2308
readout-type: Kd

The sequence `IEVKFHPIL` showed Kd equal to ≥ 20 µM

The sequence `KRASGDPYF` showed Kd equal to ≥ 20 µM

* * *

For each of the sequences below, state its pKd.
target-desc: HLA-B*15:01
protocol-details: IEDB peptide-MHC binding, purified MHC/competitive/radioactivity; filed as Kd, often an IC50 or EC50 that approximates it; bounds were set here for any values at or beyond the usual limits of such assays
applied-conditions: source organism: Dengue virus 1 Brazil/97-11/1997
pKd is defined as minus the log10 of a concentration measured in mol/L.

The sequence `QLNQLSKSEF` showed pKd equal to 7.14

The sequence `IAMTDTTPF` showed pKd equal to 8.37

The sequence `AMVLSIVSLF` showed pKd equal to 8.33

* * *

target-desc: HLA-A*01:01
protocol-details: IEDB peptide-MHC binding, purified MHC/direct/fluorescence; filed as Kd, often an IC50 or EC50 that approximates it; bounds were set here for any values at or beyond the usual limits of such assays
applied-conditions: source organism: Vibrio cholerae
readout-type: Kd

Record for `RPRIRLSAP` under target or system HLA-A*01:01: Kd reported as ≥ 20 µM

* * *

target-desc: HLA-A*02:19
protocol-details: IEDB peptide-MHC binding, purified MHC/competitive/fluorescence; filed as Kd, often an IC50 or EC50 that approximates it; bounds were set here for any values at or beyond the usual limits of such assays
applied-conditions: source organism: Human immunodeficiency virus 1
readout-type: pKd
pKd is defined as minus the log10 of a concentration measured in mol/L.

The sequence `GLGQYIYET` showed pKd equal to 6.60

* * *

target-desc: HLA-A*31:01
protocol-details: IEDB peptide-MHC binding, purified MHC/competitive/fluorescence; filed as Kd, often an IC50 or EC50 that approximates it; bounds were set here for any values at or beyond the usual limits of such assays
applied-conditions: source organism: Campylobacter jejuni subsp. jejuni NCTC 11168 = ATCC 700819
readout-type: Kd (nM)
Write down the numeric answer in nM and omit the unit.

The sequence `IMLEYPHFK` showed Kd equal to 13.6

Numbers sourced from the Immune Epitope Database (IEDB).
